Cited source for all entries: patent US11999699B2

Biological target: human NaV1.8 (Homo sapiens, UniProt Q9Y5Y9)
Construct: The following NaV1.8 recombinant cell line was used for recordings: HEK-NaV1.8 (NM 006514.1)
Sequence (Q9Y5Y9 whole entry): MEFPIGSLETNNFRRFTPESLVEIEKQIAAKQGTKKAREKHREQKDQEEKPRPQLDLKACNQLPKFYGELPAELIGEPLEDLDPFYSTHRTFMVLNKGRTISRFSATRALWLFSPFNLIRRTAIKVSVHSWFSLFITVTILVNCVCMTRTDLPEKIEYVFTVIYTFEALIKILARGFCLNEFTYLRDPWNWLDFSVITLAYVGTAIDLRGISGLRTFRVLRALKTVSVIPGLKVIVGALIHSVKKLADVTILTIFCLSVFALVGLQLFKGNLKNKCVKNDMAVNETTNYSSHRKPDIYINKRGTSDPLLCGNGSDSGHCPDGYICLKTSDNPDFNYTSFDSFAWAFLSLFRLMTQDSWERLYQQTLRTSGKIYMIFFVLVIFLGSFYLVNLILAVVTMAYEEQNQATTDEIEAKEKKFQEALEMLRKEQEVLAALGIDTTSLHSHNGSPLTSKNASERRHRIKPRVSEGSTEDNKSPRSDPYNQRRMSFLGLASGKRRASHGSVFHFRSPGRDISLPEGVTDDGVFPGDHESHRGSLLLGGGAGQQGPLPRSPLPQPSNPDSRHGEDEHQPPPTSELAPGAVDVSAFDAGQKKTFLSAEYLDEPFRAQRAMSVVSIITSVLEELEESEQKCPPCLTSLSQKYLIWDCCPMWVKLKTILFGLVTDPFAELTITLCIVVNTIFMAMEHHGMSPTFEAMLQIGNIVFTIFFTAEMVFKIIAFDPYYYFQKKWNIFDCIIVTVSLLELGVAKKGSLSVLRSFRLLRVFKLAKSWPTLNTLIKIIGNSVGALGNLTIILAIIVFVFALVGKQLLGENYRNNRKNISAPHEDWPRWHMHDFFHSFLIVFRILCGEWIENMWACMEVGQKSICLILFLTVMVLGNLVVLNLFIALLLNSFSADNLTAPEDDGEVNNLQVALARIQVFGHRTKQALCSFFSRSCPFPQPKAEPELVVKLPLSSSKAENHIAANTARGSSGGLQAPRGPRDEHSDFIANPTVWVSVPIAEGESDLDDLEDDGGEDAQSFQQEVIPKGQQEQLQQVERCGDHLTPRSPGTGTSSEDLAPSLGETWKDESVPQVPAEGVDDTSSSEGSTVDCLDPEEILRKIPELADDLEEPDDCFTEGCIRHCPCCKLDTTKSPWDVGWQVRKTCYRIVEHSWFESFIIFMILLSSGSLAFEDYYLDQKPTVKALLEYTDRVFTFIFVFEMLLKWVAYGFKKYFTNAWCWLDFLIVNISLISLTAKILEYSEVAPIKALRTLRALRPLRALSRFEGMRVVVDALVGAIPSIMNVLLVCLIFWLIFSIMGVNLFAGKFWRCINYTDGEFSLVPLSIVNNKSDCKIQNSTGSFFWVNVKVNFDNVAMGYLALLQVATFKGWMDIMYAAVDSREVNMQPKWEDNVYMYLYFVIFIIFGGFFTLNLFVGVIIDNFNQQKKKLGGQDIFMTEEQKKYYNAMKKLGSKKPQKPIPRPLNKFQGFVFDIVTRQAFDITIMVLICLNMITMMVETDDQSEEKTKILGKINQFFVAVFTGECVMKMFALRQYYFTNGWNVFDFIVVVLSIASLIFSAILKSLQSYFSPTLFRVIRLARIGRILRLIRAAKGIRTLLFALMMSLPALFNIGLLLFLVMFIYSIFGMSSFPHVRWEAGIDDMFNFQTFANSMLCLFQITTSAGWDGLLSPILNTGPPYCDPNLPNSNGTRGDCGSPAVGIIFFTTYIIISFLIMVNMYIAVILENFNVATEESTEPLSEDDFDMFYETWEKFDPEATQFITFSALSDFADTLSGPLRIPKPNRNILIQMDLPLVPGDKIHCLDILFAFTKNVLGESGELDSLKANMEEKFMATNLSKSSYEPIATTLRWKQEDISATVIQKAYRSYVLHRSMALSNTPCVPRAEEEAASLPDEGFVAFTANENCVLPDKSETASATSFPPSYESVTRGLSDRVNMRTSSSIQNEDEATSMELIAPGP
Sequence (Q9NY72 23-215 partner): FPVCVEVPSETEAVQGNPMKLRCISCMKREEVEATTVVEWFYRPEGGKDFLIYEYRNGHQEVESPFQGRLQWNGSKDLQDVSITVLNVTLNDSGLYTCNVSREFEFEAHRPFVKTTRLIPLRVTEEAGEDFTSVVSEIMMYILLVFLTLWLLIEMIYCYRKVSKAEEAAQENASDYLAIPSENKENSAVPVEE
Test: Electrophysiology: automated whole-cell voltage-clamp (patch clamp, Qube384) recordings of sodium currents in HEK-NaV1.8 cells
Conditions: potency data either taken from inactivated or resting state, read-out: Potency category (human NaV1.8 IC50)
pIC50: −log10 of the molar value.
endpoint_label: pIC50

>>> result("NS(=O)(=O)c1cccc(NC(=O)c2c(C(F)(F)F)cnn2CC2CCC(F)(F)CC2)c1")
"6.00 to 7.00"
>>> result("Cc1nn(CC2CCC(F)(F)CC2)c(C(=O)Nc2ncc(C(N)=O)o2)c1C(F)(F)F")
"5.00 to 6.00"
>>> result("CS(=O)(=O)c1cccc(NC(=O)c2c(C(F)F)cnn2CC2CCCCC2)c1")
"≥ 7.00"
>>> result("COc1nn(CC2CCC(F)(F)C2)c(C(=O)Nc2cccc(S(N)(=O)=O)c2)c1C(F)(F)F (stereo not drawn)")
"≥ 7.00"
>>> result("Cc1c(C(F)(F)F)nn(CC2CCC(F)(F)C2)c1C(=O)Nc1ccnc(S(N)(=O)=O)c1 (single isomer, unassigned) [SC-254b]")
"≥ 7.00"
>>> result("Cc1c(C(C)(F)F)nn(CC2CCC(F)(F)C2)c1C(=O)Nc1ccnc(S(N)(=O)=O)c1 (stereo not drawn)")
"≥ 7.00"
>>> result("CS(=O)(=O)c1cccc(NC(=O)c2c(C(F)(F)F)cnn2CC2CCC(F)(F)CC2)c1")
"6.00 to 7.00"
>>> result("Cc1cnc(C(N)=O)cc1NC(=O)c1c(C(F)(F)F)c(C)nn1CC1CCC(F)(F)CC1")
"6.00 to 7.00"
>>> result("Cc1ncc(NC(=O)c2c(C(F)(F)F)c(C)nn2CC2CCC(F)(F)CC2)cc1C(N)=O")
"5.00 to 6.00"
>>> result("CS(=O)(=O)c1cc(NC(=O)c2c(C(F)(F)F)c(C3CC3)nn2C[C@@H]2CCO[C@@H]2C(F)(F)F)ccn1 (single isomer, unassigned) [SC-150a]")
"≥ 7.00"
>>> result("CC1CCCC(Cn2nc(C3CC3)c(C(F)(F)F)c2C(=O)Nc2ccnc(C(N)=O)c2)O1 (stereo not drawn)")
"≥ 7.00"
>>> result("NC(=O)c1cc(NC(=O)c2c(OCC(F)(F)F)c(C3CC3)nn2CC2CCC(F)(F)C2)ccn1 (stereo not drawn)")
"5.00 to 6.00"
>>> result("CS(=O)(=O)c1cccc(NC(=O)c2c(C(F)(F)F)cnn2CC2CCCCCC2)c1")
"≥ 7.00"
>>> result("NC(=O)c1cc(NC(=O)c2c(C(F)(F)F)c(C3CC3)nn2C[C@@H]2CC[C@H](C(F)(F)F)O2)ccn1 (single isomer, unassigned) [SC-284a]")
"≥ 7.00"
>>> result("CS(=O)(=O)c1cc(NC(=O)c2c(C(F)(F)F)c(C3CC3)nn2CC2CCCCO2)ccn1 (single isomer, unassigned) [SC-259b]")
"≥ 7.00"
>>> result("NC(=O)c1cc(NC(=O)c2c(C(F)(F)F)c(C3CC3)nn2CC2CCC2(F)F)ccn1 (single isomer, unassigned) [SC-154a]")
"≥ 7.00"
>>> result("CS(=O)(=O)c1cccc(NC(=O)c2ccnn2CC2CCCCC2)c1")
"5.00 to 6.00"
>>> result("Cc1c(C(C)(F)F)nn(C[C@@]2(C)CCC(F)(F)C2)c1C(=O)Nc1ccnc(S(N)(=O)=O)c1 (single isomer, unassigned) [SC-212b]")
"≥ 7.00"
>>> result("C[C@@H]1CC[C@H](Cn2nc(C3CC3)c(C(F)(F)F)c2C(=O)Nc2ccnc(C(N)=O)c2)O1 (single isomer, unassigned) [SC-286b]")
"6.00 to 7.00"
>>> result("NS(=O)(=O)c1cccc(NC(=O)c2c(C(F)(F)F)cnn2CC2CCCC2(F)F)c1 (stereo not drawn)")
"≥ 7.00"
>>> result("Cc1c(OC(C)(F)F)nn(CC2CC(F)(F)C2)c1C(=O)Nc1ccnc(C(N)=O)c1")
"5.00 to 6.00"
